# Emax per record follows
biological target: UniProt:P28223; assay: cell-based; set-up: expressed in transfected cells; host or cells: HEK293T cells, transient co-transfection; details: HEK-293T, BRET1 beta-arrestin2 recruitment, HEK293T cells, normalized to 5-HT; read-out: 5HT2A β-Arr Emax (%)
Sequence (P28223 whole entry): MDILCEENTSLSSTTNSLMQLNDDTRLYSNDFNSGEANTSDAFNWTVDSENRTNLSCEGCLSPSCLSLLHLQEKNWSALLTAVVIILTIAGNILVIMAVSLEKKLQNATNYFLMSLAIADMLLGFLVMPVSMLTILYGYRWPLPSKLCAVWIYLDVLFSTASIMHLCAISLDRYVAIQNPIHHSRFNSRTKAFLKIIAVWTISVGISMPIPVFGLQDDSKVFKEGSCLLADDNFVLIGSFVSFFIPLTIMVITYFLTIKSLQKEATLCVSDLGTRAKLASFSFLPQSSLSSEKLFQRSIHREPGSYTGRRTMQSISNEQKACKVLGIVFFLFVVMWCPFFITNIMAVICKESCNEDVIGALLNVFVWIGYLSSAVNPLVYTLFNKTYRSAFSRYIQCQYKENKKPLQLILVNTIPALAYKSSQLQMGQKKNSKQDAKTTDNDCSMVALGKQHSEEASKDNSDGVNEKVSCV
Express the result in % but write the number alone.

{"columns": ["compound", "experimentalTarget", "Emax, %"],
 "data": [
  ["Cc1ccnc2[nH]cc(C3=CCCN(C)C3)c12 [Example 13]", "UniProt:P28223", 38.9],
  ["C1=C(c2n[nH]c3ccccc23)CNCC1 [Example 45]", "UniProt:P28223", 68.1],
  ["CCc1[nH]c2ccccc2c1C1=CCCNC1 [Example 62]", "UniProt:P28223", 45.1],
  ["COc1ccc2[nH]nc(C3=CCCNC3)c2c1 [Example 87]", "UniProt:P28223", 80]
]}

For reference, reported Emax for CN1CCC=C(c2c[nH]c3c(F)cccc23)C1 [Example 56] stands at 49.5

For reference, reported Emax for CN1CCC=C(c2c[nH]c3c(Cl)cc(F)cc23)C1 [Example 115] stands at 59.7

For reference, reported Emax for Clc1ccnc2[nH]cc(C3=CCCNC3)c12 [Example 11] stands at 43.7

For reference, reported Emax for CCc1cccc2c(C3=CCCNC3)c[nH]c12 [Example 50] stands at 79.1

For reference, reported Emax for COc1cnc2[nH]cc(C3=CCCNC3)c2c1 [Example 2] stands at 61.6

For reference, reported Emax for COc1cnc2[nH]cc(C3=CCCN(C)C3)c2c1 [Example 6] stands at 33.4

For reference, reported Emax for COc1cccc2[nH]cc(C3=CCCNC3)c12 [Example 18] stands at 51.8
